Test system: K562
EXPERIMENTAL PROTOCOL: NCI tumour cell line growth inhibition, 48 h
Activity calls are given as the source filed them. No stated cut-off is given here; in the data, active = GI50 up to about 1.1 µM and inactive = higher.
MEASURED METRIC: GI50

Answered cases to consult:
- COMPOUND: "CC(C)(C)c1ccccc1NS(=O)(=O)c1ccccc1"
  STUDY TARGET: "K562"
  GI50: "44.9 µM (inactive)"
- COMPOUND: "CN1C2=Nc3n(C)c4ccccc4[n+]3CN2c2ccccc21"
  STUDY TARGET: "K562"
  GI50: "29.5 µM (inactive)"
- COMPOUND: "C/C(=C\\COP(=O)(O)OP(=O)(O)O)CC/C=C(\\C)CNc1ccccc1"
  STUDY TARGET: "K562"
  GI50: "> 50 µM (inactive)"
- COMPOUND: "Cc1ccc(SCC(CF)OCn2cc(F)c(=O)[nH]c2=O)cc1 (stereo not given)"
  STUDY TARGET: "K562"
  GI50: "> 100 µM (inactive)"
- COMPOUND: "OCC1CCCCCCCCCCC12SCCCS2 (stereo not given)"
  STUDY TARGET: "K562"
  GI50: "48.2 µM (inactive)"

// sample `O=C(OCc1ccccc1C1CSCSC1)c1cc(C(=O)OCc2ccccc2C2CSCSC2)c(C(=O)OCc2ccccc2C2CSCSC2)cc1C(=O)OCc1ccccc1C1CSCSC1` , its GI50 was > 100 µM (inactive)

Entry `CCOC(=O)c1nc2ccc(C(F)(F)F)cc2nc1NCc1ccc(OC)c(OC)c1` , GI50 reported as 49.5 µM (inactive)

Please fill in: GI50 reported for `Cc1cc(C)c2c(n1)S(=O)(=O)N(CCCN1CCN(c3cccc(Cl)c3)CC1)C(C(=O)c1ccc(Br)cc1)=C2O` = 27.8 µM (inactive)

Reported GI50 for `COC(=O)c1c2c(cc3c1CC1(C3)Cc3cc4c(c(C(=O)OC)c3C1)CCCC4)CCCC2` was 43 µM (inactive)

Looking up `N#C/C(=C\c1ccc(O)c(O)c1)c1c(C#N)c(N)nn1-c1ccccc1` , I see its GI50 listed as 3.94 µM (inactive)

====

System: KM12
EXPERIMENTAL PROTOCOL: NCI tumour cell line growth inhibition, 48 h
Calls of active or inactive are those of the source. Rule as the data show it: active = GI50 up to about 1.1 µM and inactive = higher.
We begin with a simple list: items and their reported GI50.

Please review the following examples before continuing.
- MOLECULE: "O=C(CSc1nnc(-c2ccc(/N=C\\c3ccc(Cl)cc3)cc2)o1)Nc1ccc(Cl)cc1Cl"
  VALUE OBSERVED: "28.6 µM (inactive)"
- MOLECULE: "C=C(Br)C(C)(Cl)CCC(Br)C(C)(C)Br (stereo not given)"
  VALUE OBSERVED: "99.1 µM (inactive)"
- MOLECULE: "O=S(=O)(O)c1ccc(/N=N\\c2ccc(/N=N\\c3ccc(/C=C/c4ccc(/N=[N+](/[O-])c5ccc(/C=C/c6ccc(/N=N/c7ccc(/N=N\\c8ccc(S(=O)(=O)O)cc8)cc7)cc6S(=O)(=O)O)c(S(=O)(=O)O)c5)cc4S(=O)(=O)O)c(S(=O)(=O)O)c3)cc2)cc1"
  VALUE OBSERVED: "> 100 µM (inactive)"
- MOLECULE: "FC(F)(F)c1n[nH]c(SCc2ccc(Cl)cc2)n1"
  VALUE OBSERVED: "> 100 µM (inactive)"
- MOLECULE: "c1ccc2c(c1)SCCCS2"
  VALUE OBSERVED: "> 100 µM (inactive)"

# GI50 (molecule: COC(=O)C(Cc1ccc2c(c1)CCCC2)Cc1cc2c(cc1C(O)OC)CCC2 (stereo not given) ) is 44.7 µM (inactive)

Field GI50 (entry `O=[N+]([O-])/C(Cl)=C(\Nc1ccccc1)C(Cl)=C(Cl)Cl` ) reads 12.9 µM (inactive)

Lab book: GI50 of `N#Cc1ccccc1/C=N/O` noted as > 100 µM (inactive)

Please fill in: GI50 reported for O=C(Nc1cccc(C(F)(F)F)c1)C(=O)C1NC(=S)NC1=O (stereo not given) = > 100 µM (inactive)

In plain terms, COc1ccc(NC(C)c2ccncc2)cc1 (stereo not given) has a documented GI50 of > 100 µM (inactive)

====

Test system: SF-539
EXPERIMENTAL PROTOCOL: NCI tumour cell line growth inhibition, 48 h
Calls of active or inactive are those of the source. Cut-off read from the data, not from the text of the source: active = GI50 up to about 1.1 µM and inactive = higher.
Please reply with one of these outcomes: 1 (active), -1 (inactive)

Before answering, review these 4 worked examples.
- COMPOUND: "C/C(=C\\COP(=O)(O)OP(=O)(O)O)CC/C=C(\\C)CNc1ccccc1"
  ASSIGNED CLASS: -1
- COMPOUND: "C/C=C(/CCC1NCCC2c3ccccc3NC12)[Si](C)(C)C (stereo unspecified)"
  ASSIGNED CLASS: -1
- COMPOUND: "N#C[BH2-][n+]1ccc(C(=O)NNCC(F)(F)F)cc1"
  ASSIGNED CLASS: -1
- COMPOUND: "CCCCCCCCCCCCCCCCNCC(O)CN (stereo unspecified)"
  ASSIGNED CLASS: -1

Fill in: this test's call for CCOC(=O)C1=CNC(C(=O)OCC)C1c1cccn1-c1ccc(Cl)cc1[N+](=O)[O-] (stereo unspecified) is ___
-1

Would you mind telling me which call this test gave `C[n+]1c2ccccc2n2c3ccccc3c(NCCCn3ccnc3)c(C#N)c21` ?
-1

Just curious, what result did `Clc1ccc(CSCc2ccc(Cl)cc2Cl)c(Cl)c1` get here?
-1

====

System: DLD-1
EXPERIMENTAL PROTOCOL: NCI tumour cell line growth inhibition, 48 h
Activity calls are given as the source filed them. No stated cut-off is given here; in the data, active = GI50 up to about 1.1 µM and inactive = higher.
Documented GI50 across a set of compounds

Record C=C1C(=O)OC2/C=C(\C(=O)O)CC/C=C(\C)CC(OC(=O)/C=C(\C)CC)C12 (centres undefined) . Reported GI50: 16.7 µM (inactive)

So, C[C@]12CCC(=O)C[C@H]1CCC(O)[C@@H]2Br (some centres undefined) ? Its GI50 was > 100 µM (inactive)

Note to self: GI50 recorded for Nc1nc2c3c(ncn3CC(O)CO2)n1 (centres undefined) was > 100 µM (inactive)

====

Test system: OVCAR-8
EXPERIMENTAL PROTOCOL: NCI tumour cell line growth inhibition, 48 h
Active and inactive are the calls of the source. No stated cut-off is given here; in the data, active = GI50 up to about 1.1 µM and inactive = higher.
Entries annotated with measured GI50

The following compounds have reported results that may help.
- COMPOUND: "O=[As](O)(O)c1ccc2nc3cc([As](=O)(O)O)ccc3nc2c1"
  GI50: "> 100 µM (inactive)"
- COMPOUND: "NC(=O)C1Cc2cc3c(cc21)OCO3 (stereo unspecified)"
  GI50: "> 100 µM (inactive)"
- COMPOUND: "CCCc1[nH]nc(C(N)=O)c1/N=N/N(C)C"
  GI50: "76.2 µM (inactive)"
- COMPOUND: "O=S(=O)(O)c1cc(O)c2c(/N=C\\c3ccccc3O)cc(S(=O)(=O)O)cc2c1"
  GI50: "> 100 µM (inactive)"
- COMPOUND: "O=C1[C@H]2ON(c3ccccc3)C(c3ccccc3Cl)[C@H]2C(=O)N1c1ccc(Cc2ccc(N3C(=O)[C@@H]4ON(c5ccccc5)C(c5ccccc5Cl)[C@@H]4C3=O)cc2)cc1 (stereo partly specified)"
  GI50: "> 100 µM (inactive)"

Next item in the queue.
Memo: Cc1cn(C2CCN(CC3COC(C)(C)O3)O2)c(=O)[nH]c1=O (stereo unspecified) , reported GI50: > 100 µM (inactive)

====

Test system: DU-145
EXPERIMENTAL PROTOCOL: NCI tumour cell line growth inhibition, 48 h
Active and inactive are the calls of the source. No stated cut-off is given here; in the data, active = GI50 up to about 1.1 µM and inactive = higher.
Lab note: assign the record to one of class 1 for active, class 0 for inactive

Reference set, count: 10
- COMPOUND: "Cc1cc(C)c2c(n1)S(=O)(=O)N(CCCN1CCN(c3cccc(Cl)c3)CC1)C(C(=O)c1ccc(Br)cc1)=C2O"
  ASSIGNED CLASS: "class 0"
- COMPOUND: "O=C(Nn1cc(F)c(=O)[nH]c1=O)C12CC3CC(CC(C3)C1)C2"
  ASSIGNED CLASS: "class 0"
- COMPOUND: "O=C(NNC(=O)c1ccco1)c1ccco1"
  ASSIGNED CLASS: "class 0"
- COMPOUND: "C[C@@H]1CCC2[C@@H](C)C(=O)O[C@@H]3C4C[C@@H]1[C@@]23OO[C@@]4(C)O (stereo not given in full)"
  ASSIGNED CLASS: "class 0"
- COMPOUND: "O=C1OC(=O)C(=C\\c2ccc3c(c2)OCO3)/C1=C/c1ccc2c(c1)OCO2"
  ASSIGNED CLASS: "class 0"
- COMPOUND: "C=C(C)C(=O)O[C@@H]1C[C@@]2(C)O[C@@H]2C[C@H](O)/C(C)=C/[C@H]2OC(=O)C(=C)[C@@H]21"
  ASSIGNED CLASS: "class 0"
- COMPOUND: "Cc1oc2ccccc2c(=O)c1Cn1nnc2ccccc21"
  ASSIGNED CLASS: "class 0"
- COMPOUND: "CCOP(=O)(COCCn1nc(Br)c(=O)[nH]c1=O)OCC"
  ASSIGNED CLASS: "class 0"
- COMPOUND: "c1ccc2c(c1)c1c3c(c4c(n32)=NCCN4)CCC1"
  ASSIGNED CLASS: "class 0"
- COMPOUND: "COc1cc2c(c(OC)c1)C(=O)O[C@H](C)CCCC/C=C/C2"
  ASSIGNED CLASS: "class 0"

Recorded test outcome, item CC(=O)OC1C[C@@H](C)C2(CC(c3ccoc3)OC2=O)C2CCC(O)C3(CO3)C12CO (stereo not given in full)
class 0

Would you mind telling me which call this test gave `O=[As](O)(O)c1ccc2nc3cc([As](=O)(O)O)ccc3nc2c1` ?
class 0

So what was the verdict on `Nc1cc(N2CCCC2)nc(=O)n1Cc1ccccc1` in this test?
class 0

What outcome does the record of this test show for `CO/C(=N\N=C\c1ccc(C(F)(F)F)cc1)c1ccncc1` ?
class 0
